Recorded values, source ChEMBL document CHEMBL1148719.

Species on record: Rattus norvegicus
experimentalProtocol: Inhibition of hydrogen peroxide-induced inactivation of mitochondrial NADH:ubiquinone oxidoreductase iron sulfur cluster N2 at 10 uM
experimentalReadout: inhibition (%)

Sample answers from the record:
- molecule: "CCCCCCCC(=O)NCC(C)(C)/[N+]([O-])=C/c1ccc(C(=O)NCC(=O)NC(CO)(CO)CO)cc1"
  recordedNumber: 59.2
- molecule: "CC(C)(C)/[N+]([O-])=C/c1ccccc1"
  recordedNumber: 35

(P) CC(C)(CNC(=O)CCC(F)(F)C(F)(F)C(F)(F)C(F)(F)C(F)(F)C(F)(F)F)/[N+]([O-])=C/c1ccc(CNC(=O)[C@H](O)[C@H](O)[C@H](O[C@@H]2O[C@H](CO)[C@H](O)[C@H](O)[C@H]2O)[C@@H](O)CO)cc1
(Q) CC(C)(C)/[N+]([O-])=C\c1ccc(CNC(=O)[C@@H](O)[C@H](O)[C@H](O[C@@H]2O[C@H](CO)[C@H](O)[C@H](O)[C@H]2O)C(O)CO)cc1 (stereo not given in full)
(R) CCCCCCCC(=O)NCC(C)(C)/[N+]([O-])=C/c1ccc(CNC(=O)[C@H](O)[C@H](O)[C@H](O[C@@H]2O[C@H](CO)[C@H](O)[C@H](O)[C@H]2O)[C@@H](O)CO)cc1
Q: Parameters: sort_field (inhibition), sort_dir (desc). # format: label list in the order the request specifies
A: R, P, Q

====

// reported Activity per item
Tested on: Rotifers
experimentalProtocol: Cytoprotection against hydrogen peroxide-induced toxicity in rotifer assessed as viability at 10 uM
Format: functional, Rotifera
Give the value, in units of %, as a plain number.

# annotated cases, reported Activity shown
- molecule: "CC(C)(CNC(=O)CCC(F)(F)C(F)(F)C(F)(F)C(F)(F)C(F)(F)C(F)(F)F)/[N+]([O-])=C/c1ccc(CNC(=O)[C@H](O)[C@H](O)[C@H](O[C@@H]2O[C@H](CO)[C@H](O)[C@H](O)[C@H]2O)[C@@H](O)CO)cc1"
  experimentalReadout: "Activity"
  recordedNumber: 40.6
- molecule: "CC(C)(C)/[N+]([O-])=C\\c1ccc(CNC(=O)[C@@H](O)[C@H](O)[C@H](O[C@@H]2O[C@H](CO)[C@H](O)[C@H](O)[C@H]2O)C(O)CO)cc1 (stereo not given in full)"
  experimentalReadout: "Activity"
  recordedNumber: 18.6
- molecule: "CCCCCCCC(=O)NCC(C)(C)/[N+]([O-])=C/c1ccc(CNC(=O)[C@H](O)[C@H](O)[C@H](O[C@@H]2O[C@H](CO)[C@H](O)[C@H](O)[C@H]2O)[C@@H](O)CO)cc1"
  experimentalReadout: "Activity"
  recordedNumber: 83
- molecule: "CC(C)(C)/[N+]([O-])=C/c1ccccc1"
  experimentalReadout: "Activity"
  recordedNumber: 25.6

Here is another molecule to look at.
Record for CCCCCCCC(=O)NCC(C)(C)/[N+]([O-])=C/c1ccc(C(=O)NCC(=O)NC(CO)(CO)CO)cc1 under target or system Rotifers: Activity reported as 24.1

====

Organism: Rattus norvegicus
experimentalProtocol: Inhibition of doxorubicin-induced inactivation of mitochondrial NADH:ubiquinone oxidoreductase iron sulfur cluster N2 at 10 uM
experimentalReadout: inhibition (%)

- compound: "CC(C)(C)/[N+]([O-])=C\\c1ccc(CNC(=O)[C@@H](O)[C@H](O)[C@H](O[C@@H]2O[C@H](CO)[C@H](O)[C@H](O)[C@H]2O)C(O)CO)cc1 (stereo not given in full)"
  inhibition / %: 13.5
- compound: "CC(C)(C)/[N+]([O-])=C/c1ccccc1"
  inhibition / %: 44.3
- compound: "CCCCCCCC(=O)NCC(C)(C)/[N+]([O-])=C/c1ccc(C(=O)NCC(=O)NC(CO)(CO)CO)cc1"
  inhibition / %: 83.5

(P) CC(C)(CNC(=O)CCC(F)(F)C(F)(F)C(F)(F)C(F)(F)C(F)(F)C(F)(F)F)/[N+]([O-])=C/c1ccc(CNC(=O)[C@H](O)[C@H](O)[C@H](O[C@@H]2O[C@H](CO)[C@H](O)[C@H](O)[C@H]2O)[C@@H](O)CO)cc1
(Q) CCCCCCCC(=O)NCC(C)(C)/[N+]([O-])=C/c1ccc(CNC(=O)[C@H](O)[C@H](O)[C@H](O[C@@H]2O[C@H](CO)[C@H](O)[C@H](O)[C@H]2O)[C@@H](O)CO)cc1
Q: # argmax over inhibition for candidates P and Q # reply format: chosen label
A: Q

====

Species: Rattus norvegicus
experimentalProtocol: Inhibition of peroxynitrite-induced inactivation of mitochondrial NADH:ubiquinone oxidoreductase iron sulfur cluster N2 at 10 uM
experimentalReadout: inhibition (%)

- compound: "CCCCCCCC(=O)NCC(C)(C)/[N+]([O-])=C/c1ccc(CNC(=O)[C@H](O)[C@H](O)[C@H](O[C@@H]2O[C@H](CO)[C@H](O)[C@H](O)[C@H]2O)[C@@H](O)CO)cc1"
  inhibition [%]: 72.5
- compound: "CC(C)(C)/[N+]([O-])=C/c1ccccc1"
  inhibition [%]: 27.6
- compound: "CCCCCCCC(=O)NCC(C)(C)/[N+]([O-])=C/c1ccc(C(=O)NCC(=O)NC(CO)(CO)CO)cc1"
  inhibition [%]: 40.5

(1) CC(C)(CNC(=O)CCC(F)(F)C(F)(F)C(F)(F)C(F)(F)C(F)(F)C(F)(F)F)/[N+]([O-])=C/c1ccc(CNC(=O)[C@H](O)[C@H](O)[C@H](O[C@@H]2O[C@H](CO)[C@H](O)[C@H](O)[C@H]2O)[C@@H](O)CO)cc1
(2) CC(C)(C)/[N+]([O-])=C\c1ccc(CNC(=O)[C@@H](O)[C@H](O)[C@H](O[C@@H]2O[C@H](CO)[C@H](O)[C@H](O)[C@H]2O)C(O)CO)cc1 (stereo not given in full)
Q: In the pair 1 and 2 , the larger recorded inhibition belongs to which? Let me know the label of the one you choose.
A: 1
